# System: NCI-H522 lung
# run description: NCI tumour cell line growth inhibition, 48 h
List of TGI values.
Quick reminder: number only, in µM, skip the unit.

Example entries begin here.
compound=CC(=O)CCCCn1c(=O)c2c(nc(Br)n2C)n(C)c1=O recorded_endpoint=TGI recorded_measurement=24.9
compound="CC1(C)OP(=O)(c2ccccc2)C=C1Sc1ccc([N+](=O)[O-])cc1[N+](=O)[O-] (stereo not given)" recorded_endpoint=TGI recorded_measurement=36.6

Input: Given the compound O=C(Nc1ccc(Oc2ccc3nc(NC(=O)c4ccco4)[nH]c3c2)cc1)Nc1cc(C(F)(F)F)ccc1F , what is its reported TGI?
Output: 9.55

Input: Another: COC1(CC[C@@H](C)COC2OC(CO)C(O)C(O)C2O)O[C@H]2C[C@H]3[C@@H]4CC=C5C[C@@H](OC6OC(CO)C(OC7OC(C)C(O)C(O)C7O)C(O)C6OC6OC(C)C(O)C(O)C6O)CC[C@]5(C)[C@H]4CC[C@]3(C)[C@H]2[C@@H]1C (stereo not given in full)
Output: 4.23

Input: Another: COc1cc(CNCCCCCCN2C(=O)c3cccc4cccc(c34)C2=O)ccc1O
Output: 7.97

====

# Test system: SF-268 CNS
# run description: NCI tumour cell line growth inhibition, 48 h
List of TGI values.

Example entries begin here.
molecule="CC1(C)C2CCC3CC(CCC#N)CCC3C21C#N (stereo unspecified)" system_under_test="SF-268 CNS" recorded_endpoint=TGI recorded_measurement="> 100 µM"
molecule=CCOC(=O)CSc1cc(Cl)c(C)cc1S(=O)(=O)/N=C(/N=C/c1ccc([N+](=O)[O-])s1)NNC system_under_test="SF-268 CNS" recorded_endpoint=TGI recorded_measurement="> 100 µM"
molecule=COc1cccc2c1-c1nc(N)c3c(OC)cccc3c1C2=O system_under_test="SF-268 CNS" recorded_endpoint=TGI recorded_measurement="> 100 µM"
molecule=C#Cc1cccc(Nc2ncnc3cc(NC(=O)CCl)ccc23)c1 system_under_test="SF-268 CNS" recorded_endpoint=TGI recorded_measurement="8.55 µM"
molecule=CSc1nc(=S)[nH]c2c1c(C)nn2-c1ccccc1 system_under_test="SF-268 CNS" recorded_endpoint=TGI recorded_measurement="> 100 µM"

Next, consider the following molecule.
Input: Fill in the recorded TGI for this molecule, with SF-268 CNS as test system: CC(C)N(C(=O)C12C3C4C1C1C2C3C41C#N)C(C)C (stereo unspecified)
Output: > 100 µM

====

# Test system: UACC-62 melanoma
# run description: NCI tumour cell line growth inhibition, 48 h
List of TGI values.
Quick reminder: number only, in µM, skip the unit.

Example entries begin here.
smiles_input=C/C(=N\O)c1ccc2ccc3ccccc3c2c1 system_under_test="UACC-62 melanoma" recorded_endpoint=TGI recorded_measurement=45.2
smiles_input=CN(C)CCNc1ccc2ncn3c4ccccc4c(=O)c1c23 system_under_test="UACC-62 melanoma" recorded_endpoint=TGI recorded_measurement=12.3
smiles_input=COc1cnc2c(c1)C(=O)c1c-2n(CCCNC2=NCCS2)c(=O)c2cc(F)ccc12 system_under_test="UACC-62 melanoma" recorded_endpoint=TGI recorded_measurement=14.6

Next, consider the following compound.
Input: Given the compound C#Cc1cccc(Nc2ncnc3cc(NC(=O)CCl)ccc23)c1 , what is its reported TGI?
Output: 4.99

====

# Tested on: SN12C renal
# run description: NCI tumour cell line growth inhibition, 48 h; in the data active = GI50 below about 0.43 µM; inactive = the rest
Write down the outcome that applies. Available outcomes: True (active), False (inactive)

Example entries begin here.
smiles_input=CC(C)(C)c1cc(C(=O)Nc2ccccc2C(=O)NCCN)cc(C(C)(C)C)c1 system_under_test="SN12C renal" label_value=False
smiles_input=COc1cnc2c(c1)C(=O)c1c-2n(CCCNC2=NCCS2)c(=O)c2cc(F)ccc12 system_under_test="SN12C renal" label_value=True
smiles_input=c1ccc(-c2oc(-c3ccccc3)c(CN3CCCCC3)c2CN2CCCCC2)cc1 system_under_test="SN12C renal" label_value=False

Input: Please indicate how the test categorized CC(=O)Nc1ccc(C(=O)CCl)cc1 .
Output: False

Input: Another: C=C1C(=O)O[C@H]2[C@H]1CC/C(COC(=O)c1cc(OC)c(OC)c(OC)c1)=C\CC[C@@]1(C)O[C@@H]21
Output: False

====

# Test system: UACC-62 melanoma
# run description: NCI tumour cell line growth inhibition, 48 h
List of TGI values.

Example entries begin here.
compound="CC1(C)CCN2C(=O)C34CCCC3CC21S4 (stereo not given)" recorded_measurement="> 100 µM"
compound=COc1ccc(/C=c2\c(=O)[nH]c3nc4ccccc4c(=O)n23)cc1 recorded_measurement="> 100 µM"
compound="CC1=CC2C(C=C1)S(=O)(=O)N1CC21c1ccccc1 (stereo not given)" recorded_measurement="> 100 µM"
compound="Nc1nncc2c1c(Br)cn2C1OC(CO)C(O)C1O (stereo not given)" recorded_measurement="> 100 µM"
compound="O=NN1C(c2ccccc2)CNC(=O)CC1c1ccccc1 (stereo not given)" recorded_measurement="> 100 µM"
compound=Cn1cc(/C=C\[N+](=O)[O-])c2ccccc21 recorded_measurement="> 100 µM"

Input: Given the compound CCOC(=O)N/N=C(/N)c1cccc(Br)c1 , what is its reported TGI?
Output: > 100 µM

Input: Another: Oc1ccc(Br)cc1C=Nc1cccc(C(F)(F)F)c1
Output: 71.1 µM

Input: Another: Cc1ccccc1N=Nc1c(O)ccc2ccccc12
Output: > 100 µM

Input: Another: COc1cc2c(c(OC)c1OC)-c1ccc(NN(C(=O)c3ccccc3)C(=O)c3ccccc3)c(=O)cc1[C@@H](NC(C)=O)CC2 (tested in a mixture with another compound)
Output: 42.1 µM

Input: Another: S=c1sc2c(s1)SC(c1ccccc1)CS2 (stereo not given)
Output: > 100 µM

Input: Another: Nc1ccc2n[se]nc2c1
Output: > 100 µM

Input: Another: CC1(C)OC(=O)C(C)(C)C(=O)O1
Output: > 100 µM

Input: Another: CCc1n[nH]c(=O)n1CCCCCCCCn1c(CC)n[nH]c1=O
Output: > 100 µM

Input: Another: O=C(O/N=C1\CCCC\C1=C/c1ccccc1)c1ccc([N+](=O)[O-])cc1
Output: > 100 µM

Input: Another: CCOC(=O)CSc1cc(Cl)c(C)cc1S(=O)(=O)/N=C(/N=C/c1ccc([N+](=O)[O-])s1)NNC
Output: 30.8 µM

Input: Another: COc1cccc2c1-c1nc(N)c3c(OC)cccc3c1C2=O
Output: > 100 µM

Input: Another: O=C1/C(=C/c2ccc(Cl)c(Cl)c2)CN(C(=O)C(Cl)Cl)C/C1=C\c1ccc(Cl)c(Cl)c1
Output: 0.459 µM

Input: Another: O=c1[nH]nc(Cc2ccccc2)n1/N=C/c1cccs1
Output: > 100 µM

Input: Another: COc1ccc(C(O)c2cc3c(N)c(C(=O)Nc4ccc(Cl)cc4)sc3nc2C)cc1 (stereo not given)
Output: 32.8 µM

====

# System: EKVX NSCLC
# run description: NCI tumour cell line growth inhibition, 48 h; in the data active = GI50 below about 0.43 µM; inactive = the rest
Write down the outcome that applies. Available outcomes: active, inactive

Example entries begin here.
compound=C=C1C(=O)O[C@H]2[C@H]1CC/C(COC(=O)c1cc(OC)c(OC)c(OC)c1)=C\CC[C@@]1(C)O[C@@H]21 label_value=inactive
compound=COc1cccc(/C=C/C(=O)c2ccc3cc(OC)ccc3c2)c1 label_value=inactive
compound=O=C1NC(=S)S/C1=C\c1cn(-c2ccccc2)nc1-c1ccccc1 label_value=inactive
compound=C#Cc1cccc(Nc2ncnc3cc(NC(=O)CCl)ccc23)c1 label_value=inactive
compound=COc1cc[c]([Sn]([c]2ccc(OC)cc2)([c]2ccc(OC)cc2)[c]2ccc(OC)cc2)cc1 label_value=inactive
compound=COc1ccc(-c2cc(-c3ccc(Nc4nc(Nc5ccccc5)nc(Nc5ccc(Cl)cc5)n4)cc3)nc(N)n2)cc1 label_value=inactive
compound="COc1ccc2c(c1)OC(N)=C(C#N)C2c1cc(OC)c(OC)c(OC)c1 (configuration not stated)" label_value=active
compound=NC(N)=N/N=C/c1c(-c2ccsc2)nc2n1CCS2 label_value=inactive
compound=CCOC(=O)CSc1cc(Cl)c(C)cc1S(=O)(=O)/N=C(/N=C/c1ccc([N+](=O)[O-])s1)NNC label_value=inactive
compound=Cn1cc(/C=C\[N+](=O)[O-])c2ccccc21 label_value=inactive

Input: Please indicate how the test categorized O=C1CC(c2c[nH]c3ccc(F)cc23)C(=O)N1 (configuration not stated) .
Output: inactive

Input: Another: CO[C@H]1C[C@@H]2CC[C@@H](C)[C@@](O)(O2)C(=O)C(=O)N2CCCC[C@H]2C(=O)O[C@H]([C@H](C)C[C@@H]2CC[C@@H](OC(=O)C(C)(CO)CO)[C@H](OC)C2)CC(=O)[C@H](C)/C=C(\C)[C@@H](O)[C@@H](OC)C(=O)[C@H](C)C[C@H](C)\C=C/C=C/C=C/1C
Output: active
